- experimental.system: α4β7 integrin on human cells (human, UniProt P13612 34-1032; P26010 20-798)
- assay.details: cell-based or functional assay
Bridge positions count the residues as written; N and C are the ends. Square brackets hold non-standard residues; d marks the D form. Ends that are not written are not given here. Phe(4-tBu) = CC(C)(C)c1ccc(C[C@H](N)C(=O)O)cc1; Phe(2-CONH2) = NC(=O)c1ccccc1C[C@H](N)C(=O)O; 2Nal = N[C@@H](Cc1ccc2ccccc2c1)C(=O)O; NMeR = CN[C@@H](CCCNC(=N)N)C(=O)O; NMeK = CN[C@@H](CCCCN)C(=O)O; Pen = CC(C)(S)[C@H](N)C(=O)O; dNMeK = CN[C@H](CCCCN)C(=O)O; Dap = NC[C@H](N)C(=O)O
observable: α4β7 cell (Hu) IC50

Ac-[Pen][NMeR]SDTL[Pen][Phe(2-CONH2)][dE][dK]-NH2 (disulfide 1-7 (inferred); also: homodimer linked by DIG) [SEQ ID NO 98] ... > 50 nM
Ac-[Pen][NMeR]SDTL[Pen][2Nal]E[NMeK]-NH2 (disulfide 1-7 (inferred); also: homodimer via DIG) [SEQ ID NO 138] ... > 10 nM
Ac-[Pen][NMeR]SDTL[Pen]W[dP]K-NH2 (disulfide 1-7 (inferred); also: homodimer linked by DIG) [SEQ ID NO 96] ... > 50 nM
Ac-[Pen][NMeR]SDFL[Pen][2Nal][dE]-NH2 (disulfide 1-7 (inferred)) [SEQ ID NO 157] ... > 1000 nM
Ac-[Pen][NMeR]SDTL[Pen]W[dE][dK]-NH2 (disulfide 1-7 (inferred); also: homodimer linked by IDA, IDA-Biotine) [SEQ ID NO 71] ... > 25 nM

Asked: Answer with reported α4β7 cell (Hu) IC50 of Ac-[Pen][NMeR]SDTL[Pen]W[dE][Dap]-NH2 (disulfide 1-7 (inferred)) [SEQ ID NO 55]
Given back: > 100 nM

Asked: Answer with reported α4β7 cell (Hu) IC50 of Ac-[Pen][NMeR]SDTL[Pen][2Nal][dE][dNMeK]-NH2 (disulfide 1-7 (inferred); also: homodimer via DIG linker) [SEQ ID NO 39]
Given back: > 10 nM

Asked: Answer with reported α4β7 cell (Hu) IC50 of Ac-[Pen][NMeR]SDTL[Pen][Phe(4-tBu)][b‑H‑E][dK] (disulfide 1-7 (inferred); not fully specified (residue 10); also: isovaleric acid attached after k) [SEQ ID NO 171]
Given back: > 10 nM

Asked: Answer with reported α4β7 cell (Hu) IC50 of Ac-[Pen][NMeR]SDTL[Pen][2Nal][dT][dK]-NH2 (disulfide 1-7 (inferred); also: homodimer via DIG) [SEQ ID NO 140]
Given back: > 10 nM
